Test system: ATP;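 also: ATP exposure 15 min at 22 °C before imaging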
Assay: switch fluorescence ratio, 500 uM ATP over buffer (Cy3 cluster intensity, sum of 5 cycles each) (fold (ratio)); higher = stronger signal-on switching upon ATP binding; sequences stand for … in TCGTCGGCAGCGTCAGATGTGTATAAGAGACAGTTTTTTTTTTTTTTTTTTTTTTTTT…TC
Settings: aptamer strand: ATP DNA aptamer (quencher-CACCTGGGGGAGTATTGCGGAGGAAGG + anchor), 100 nM annealed; ATP concentration: 500 uM
READOUT: switch fluorescence ratio
API note: the answer field is a bare number with no unit suffix.

Field: example entries. Status: answers known.
{"SEQUENCE": "AGTGCAGGCA", "switch fluorescence ratio": 1}
{"SEQUENCE": "TTTCACCGGG", "switch fluorescence ratio": 1.16}
{"SEQUENCE": "GCGGGGACTT", "switch fluorescence ratio": 0.984}

Query: Endpoint output: switch fluorescence ratio of GAGTGCGGTT . Value?
Reply: 0.99

Query: Endpoint output: switch fluorescence ratio of TTTGCGTTCA . Value?
Reply: 1.02

Query: Endpoint output: switch fluorescence ratio of AAGTGTCGGG . Value?
Reply: 0.994

Query: Endpoint output: switch fluorescence ratio of GACAACAAGG . Value?
Reply: 1.05
